Assay: Plasma Stability
Type: in vitro ADME, human
Settings: % @ 1 h (remaining) in human plasma
readout.type: human Plasma stability

Need human Plasma stability, item C=CCN(C)C(=O)OCSc1nc(=O)c2[nH]ccc2n1CCOC(C)C.O=C(O)C(F)(F)F
99% @ 1 h

Would you mind doing C=CCCN(C)C(=O)OCSc1nc(=O)c2c(ccn2COC(=O)N(C)CCC=C)n1CCOC(C)C.O=C(O)C(F)(F)F as well?
99% @ 1 h

Would you mind doing CC(C)OCCn1c(SCOC(=O)N(C)Cc2ccccc2)nc(=O)c2[nH]ccc21.O=C(O)C(F)(F)F as well?
99% @ 1 h

Would you mind doing CCCC(=O)OCn1ccc2c1c(=O)[nH]c(=S)n2CCOC(C)C as well?
9% @ 1 h

Would you mind doing C=CCN(C)C(=O)OCSc1nc(=O)c2c(ccn2COC(=O)N(C)CC=C)n1CCOC(C)C.O=C(O)C(F)(F)F as well?
86% @ 1 h

Would you mind doing CCCCN(C)C(=O)OCSc1nc(=O)c2c(ccn2COC(=O)N(C)CCCC)n1CCOC(C)C as well?
96% @ 1 h

Would you mind doing CC(C)OCCn1c(SCOC(=O)N(C)C)nc(=O)c2[nH]ccc21.O=C(O)C(F)(F)F as well?
98% @ 1 h

Would you mind doing CC(C)OCCn1c(SCOC(=O)N(C)CCc2ccccc2)nc(=O)c2c1ccn2COC(=O)N(C)CCc1ccccc1.O=C(O)C(F)(F)F as well?
99% @ 1 h

Would you mind doing CCN(C)C(=O)OCSc1nc(=O)c2[nH]ccc2n1CCOC(C)C as well?
90% @ 1 h

Would you mind doing CC(C)OCCn1c(SCOC(=O)N(C)C(C)C)nc(=O)c2[nH]ccc21.O=C(O)C(F)(F)F as well?
100% @ 1 h

Would you mind doing CC(C)OCCn1c(SCOC(=O)N(C)C(C)(C)C)nc(=O)c2[nH]ccc21.O=C(O)C(F)(F)F as well?
98% @ 1 h

----------
Experiment: Stability in Simulated Gastric Fluid (SGF)
Assay type: in vitro ADME
Parameters: key: % parent compound remaining relative to 0-minute sample
Details: % remaining @ 1 h
readout.type: SGF (%@ 1 h)
I only need the number, in %@ 1 h, no unit after it.

Need SGF, item CC(C)C[C@@H](N)C(=O)OCn1ccc2c1c(=O)[nH]c(=S)n2CCOC(C)C.O=C(O)C(F)(F)F [Example 324]
98

Would you mind doing CC(C)C[C@H](N)C(=O)OCn1ccc2c1c(=O)[nH]c(=S)n2CCOC(C)C.O=C(O)C(F)(F)F [Example 320] as well?
48

Would you mind doing CC(C)C[C@H](N)C(=O)OCn1ccc2c1c(=O)n(CO)c(=S)n2CCOC(C)C.O=C(O)C(F)(F)F [Example 323] as well?
95

Would you mind doing CC(C)C[C@@H](NC(=O)OC(C)(C)C)C(=O)OCSc1nc(=O)c2c(ccn2COC(=O)[C@@H](CC(C)C)NC(=O)OC(C)(C)C)n1CCOC(C)C [Example 318] as well?
81

Would you mind doing CC(C)C[C@@H](N)C(=O)OCn1c(=O)c2c(ccn2COC(=O)[C@H](N)CC(C)C)n(CCOC(C)C)c1=S.O=C(O)C(F)(F)F.O=C(O)C(F)(F)F [Example 326] as well?
97

Would you mind doing CC(C)C[C@H](NC(=O)OC(C)(C)C)C(=O)OCSc1nc(=O)c2c(ccn2COC(=O)[C@H](CC(C)C)NC(=O)OC(C)(C)C)n1CCOC(C)C [Example 315] as well?
78

Would you mind doing CC(C)C[C@@H](NC(=O)OC(C)(C)C)C(=O)OCn1ccc2c1c(=O)[nH]c(=S)n2CCOC(C)C [Example 317] as well?
56
